From: ChEMBL document CHEMBL3351775

assay: in vitro; details: human, MT4 cells, mock-infected (CC50) and HIV1 3B infected (EC50)
Description: Selectivity index, ratio of CC50 for mock-infected human MT4 cells to EC50 for HIV1 3B infected in human MT4 cells
# note: exactly 300 is not below, so it is class 0; use class 1 for selectivity ratio strictly under it

Lookup: Lab note: selectivity ratio threshold 300. Does this compound come in strictly under it? "COC(CNC(=O)c1cnc(Nc2ccc(C#N)cc2)cc1Oc1c(C)cc(C)cc1C)OC"
Found: class 1

Lookup: Another compound to look at: "CCCNC(=O)c1cnc(Nc2ccc(C#N)cc2)cc1Oc1c(C)cc(C)cc1C"
Found: class 0

Lookup: Another compound to look at: "Cc1cc(C)c(Oc2cc(Nc3ccc(C#N)cc3)ncc2C(=O)NCCN(C)C)c(C)c1"
Found: class 1

Lookup: Another compound to look at: "CCCNC(=O)c1cnc(Nc2ccc(C#N)cc2)cc1Oc1c(C)cc(C#N)cc1C"
Found: class 0

Lookup: Another compound to look at: "Cc1cc(C)c(Oc2cc(Nc3ccc(C#N)cc3)ncc2C(N)=O)c(C)c1"
Found: class 0

Lookup: Another compound to look at: "C#CCNC(=O)c1cnc(Nc2ccc(C#N)cc2)cc1Oc1c(C)cc(C)cc1C"
Found: class 0
